- Assay System: Hypoxia-inducible factor 1-alpha (Homo sapiens)
- Protocol Description: ATG_HIF1a_CIS: Attagene CIS-FACTORIAL HepG2 Assay for human Hypoxia Inducible Factor 1 (HIF1A) (AID 2282951)
- Condition Info: HepG2 Attagene cis-factorial HIF1a reporter transcription; actives raise or lower the signal
Calls of active or inactive are those of the source. The calls were made as follows: active = hit-call score of the fitted dose curve at least 0.9, where 1 is the maximum; inactive = score below 0.9.
Hi there, use one of these labels in your reply, thanks! active, inactive

>  <Compound>
Nc1ccc(Cl)cc1

>  <Assay System>
Hypoxia-inducible factor 1-alpha (Homo sapiens)

>  <Label Class>
inactive

$$$$
>  <Compound>
C=CC(=O)OCC(F)(F)C(F)F

>  <Assay System>
Hypoxia-inducible factor 1-alpha (Homo sapiens)

>  <Label Class>
inactive

$$$$
>  <Compound>
O=C(O)C(Cl)Cl

>  <Assay System>
Hypoxia-inducible factor 1-alpha (Homo sapiens)

>  <Label Class>
inactive

$$$$
>  <Compound>
CO/N=C(/C(=O)OC)c1ccccc1COc1ccccc1C

>  <Assay System>
Hypoxia-inducible factor 1-alpha (Homo sapiens)

>  <Label Class>
active

$$$$
>  <Compound>
CC(=O)CCc1ccc2c(c1)OCO2

>  <Assay System>
Hypoxia-inducible factor 1-alpha (Homo sapiens)

>  <Label Class>
inactive

$$$$

Query string: # lookup: test call for `Cc1cccc(N)c1`
Result string: inactive

Query string: # lookup: test call for FC(F)(F)C(F)(C(F)(F)F)C(F)(F)C(F)(F)CC1CO1 (stereo not drawn)
Result string: inactive

Query string: # lookup: test call for `CCOP(=S)(OCC)SCSc1ccc(Cl)cc1`
Result string: inactive

Query string: # lookup: test call for `O=[N+]([O-])c1ccc(Cl)c(Cl)c1`
Result string: inactive

Query string: # lookup: test call for `COP(=O)(O)OC`
Result string: inactive

Query string: # lookup: test call for `OCC(F)(F)OC(F)(F)C(F)(F)OC(F)(F)C(F)(F)OC(F)(F)F`
Result string: inactive

Query string: # lookup: test call for `O=C(CBr)OCc1ccccc1`
Result string: inactive

Query string: # lookup: test call for CCCCOCC1CO1 (stereo not drawn)
Result string: inactive
